Please consider the recorded MIC for Staphylococcus aureus NCTC 10788 in what follows.
Response body: numeric value in µM, unit text excluded.

// known answers, use as guide
[[record]]
compound = "CC[C@H](C)[C@H](NC(=O)CNC(=O)CNC(=O)[C@H](C)NC(=O)[C@@H](NC(=O)[C@H](CCCCN)NC(=O)[C@@H]1CCCN1C(=O)[C@@H](NC(=O)[C@H](CC(C)C)NC(=O)[C@H](CO)NC(=O)[C@H](CC(C)C)NC(=O)[C@@H](N)Cc1ccccc1)[C@@H](C)CC)[C@@H](C)CC)C(=O)N[C@@H](C)C(=O)N[C@@H](C)C(=O)N[C@@H](CC(C)C)C(=O)N[C@@H](C)C(=O)N[C@@H](CCCCN)C(=O)N[C@@H](Cc1cnc[nH]1)C(=O)N[C@@H](CC(C)C)C(N)=O [FLSLIPKIAGGIAALAKHL]"
reported_property = "MIC"
unit_info = "µM"
measured_number = 4.14

[[record]]
compound = "CC[C@H](C)[C@H](NC(=O)CNC(=O)CNC(=O)[C@H](C)NC(=O)[C@@H](NC(=O)[C@H](CCCCN)NC(=O)[C@@H]1CCCN1C(=O)[C@@H](NC(=O)[C@H](CCSC)NC(=O)[C@H](CO)NC(=O)[C@H](CC(C)C)NC(=O)[C@@H](N)Cc1ccccc1)[C@@H](C)CC)[C@@H](C)CC)C(=O)N[C@@H](C)C(=O)N[C@@H](CO)C(=O)N[C@@H](CC(C)C)C(=O)N[C@H](C(=O)N[C@@H](CCCCN)C(=O)N[C@@H](CC(N)=O)C(=O)N[C@@H](CC(C)C)C(N)=O)C(C)C [FLSMIPKIAGGIASLVKNL]"
reported_property = "MIC"
unit_info = "µM"
measured_number = 4.06

[[record]]
compound = "CC[C@H](C)[C@H](NC(=O)[C@@H](NC(=O)[C@@H]1CCCN1C(=O)[C@H](CC(C)C)NC(=O)[C@@H](N)Cc1ccccc1)C(C)C)C(=O)N[C@@H](C)C(=O)NCC(=O)N[C@H](C(=O)N[C@@H](CC(C)C)C(=O)N[C@@H](CO)C(=O)N[C@@H](CCCCN)C(=O)N[C@@H](CC(C)C)C(=O)N[C@@H](Cc1ccccc1)C(N)=O)C(C)C [FLPVIAGVLSKLF]"
reported_property = "MIC"
unit_info = "µM"
measured_number = 10


Provide value of MIC for this record tested with Staphylococcus aureus NCTC 10788: CC[C@H](C)[C@H](NC(=O)[C@H](Cc1ccc(O)cc1)NC(=O)[C@H](CC(C)C)NC(=O)[C@@H](N)Cc1ccccc1)C(=O)N[C@H](C(=O)N[C@@H](C)C(=O)N[C@@H](CCCCN)C(=O)N[C@@H](CC(C)C)C(=O)N[C@@H](CC(C)C)C(=O)N[C@@H](CO)C(=O)NCC(=O)N[C@@H](CC(C)C)C(=O)N[C@@H](CC(C)C)C(N)=O)C(C)C [FLYIVAKLLSGLL]
1

Provide value of MIC for this record tested with Staphylococcus aureus NCTC 10788: CC[C@H](C)[C@H](NC(=O)[C@H](C)NC(=O)[C@H](CO)NC(=O)[C@@H](NC(=O)[C@H](C)NC(=O)[C@H](CCCCN)NC(=O)[C@@H]1CCCN1C(=O)[C@@H](NC(=O)[C@H](CC(C)C)NC(=O)[C@H](CO)NC(=O)[C@H](CC(C)C)NC(=O)[C@@H](N)Cc1ccccc1)[C@@H](C)CC)[C@@H](C)CC)C(=O)N[C@@H](CO)C(=O)N[C@@H](C)C(=O)N[C@@H](CC(C)C)C(=O)N[C@@H](C)C(=O)N[C@@H](CC(N)=O)C(=O)N[C@@H](Cc1cnc[nH]1)C(=O)N[C@@H](Cc1ccccc1)C(N)=O [FLSLIPKAISAISALANHF]
4

Provide value of MIC for this record tested with Staphylococcus aureus NCTC 10788: CC[C@H](C)[C@H](NC(=O)[C@H](C)NC(=O)[C@H](CCCCN)NC(=O)[C@@H]1CCCN1C(=O)[C@@H](NC(=O)[C@H](CC(C)C)NC(=O)[C@H](CCCCN)NC(=O)[C@H](Cc1ccccc1)NC(=O)[C@H](CC(C)C)NC(=O)[C@@H](N)Cc1ccccc1)[C@@H](C)CC)C(=O)N[C@@H](CCCCN)C(=O)NCC(=O)N[C@@H](CC(C)C)C(=O)N[C@@H](CC(C)C)C(=O)N[C@@H](CCCCN)C(=O)N[C@@H](C)C(=O)N[C@@H](Cc1ccccc1)C(=O)N[C@H](C=O)CCCCN [FLFKLIPKAIKGLLKAFK]
4

Provide value of MIC for this record tested with Staphylococcus aureus NCTC 10788: CC[C@H](C)[C@H](NC(=O)[C@H](C)NC(=O)CNC(=O)[C@@H](NC(=O)[C@@H](N)Cc1ccccc1)C(C)C)C(=O)N[C@@H](C)C(=O)N[C@@H](C)C(=O)N[C@@H](C)C(=O)N[C@@H](CC(C)C)C(=O)N1CCC[C@H]1C(=O)N[C@@H](Cc1cnc[nH]1)C(=O)N[C@H](C(=O)N[C@H](C(=O)N[C@@H](CO)C(=O)N[C@@H](C)C(=O)N[C@H](C(=O)N[C@@H](CCCCN)C(=O)N[C@@H](CC(N)=O)C(=O)N[C@@H](C)C(=O)N[C@@H](CC(C)C)C(=O)O)[C@@H](C)CC)[C@@H](C)CC)C(C)C [FVGAIAAALPHVISAIKNAL]
16

---

system: Bacillus subtilis ATCC 6633
log10 of MIC listing for selected compounds.
Record value = log10 of MIC given in µM.

[[record]]
smiles_representation = "CC(C)C[C@H](NC(=O)[C@H](CC(C)C)NC(=O)[C@H](Cc1c[nH]c2ccccc12)NC(=O)[C@H](CCCCN)NC(=O)[C@H](CC(C)C)NC(=O)[C@@H](N)CC(C)C)C(=O)N[C@@H](CCCCN)C(N)=O"
test_system = "Bacillus subtilis ATCC 6633"
reported_property = "log10 of MIC"
measured_number = 1.44

[[record]]
smiles_representation = "C[C@H](NC(=O)[C@H](C)NC(=O)[C@H](Cc1c[nH]c2ccccc12)NC(=O)[C@H](C)NC(=O)[C@H](C)NC(=O)[C@H](Cc1c[nH]c2ccccc12)NC(=O)[C@H](C)NC(=O)[C@H](C)NC(=O)[C@H](Cc1c[nH]c2ccccc12)NC(=O)[C@H](C)NC(=O)[C@H](C)NC(=O)[C@H](CCCCN)NC(=O)[C@H](CCCCN)NC(=O)[C@H](CCCCN)NC(=O)[C@H](CCCCN)NC(=O)[C@H](CCCCN)NC(=O)[C@@H](N)CCCCN)C(N)=O"
test_system = "Bacillus subtilis ATCC 6633"
reported_property = "log10 of MIC"
measured_number = 0.60

[[record]]
smiles_representation = "CC[C@H](C)[C@H](N)C(=O)N[C@@H](CC(C)C)C(=O)NCC(=O)N[C@@H](CCCCN)C(=O)N[C@@H](Cc1ccccc1)C(=O)N[C@@H](Cc1c[nH]c2ccccc12)C(=O)N[C@@H](CCC(=O)O)C(=O)NCC(=O)N[C@H](C(=O)N[C@@H](CCCCN)C(=O)N[C@@H](CO)C(=O)N[C@@H](CC(C)C)C(=O)N[C@@H](Cc1ccccc1)C(N)=O)[C@@H](C)CC"
test_system = "Bacillus subtilis ATCC 6633"
reported_property = "log10 of MIC"
measured_number = -0.11

[[record]]
smiles_representation = "CC(C)C[C@H](NC(=O)[C@H](CC(C)C)NC(=O)[C@H](CC(C)C)NC(=O)[C@@H]1CCCN1C(=O)[C@H](CC(C)C)NC(=O)[C@@H](N)Cc1ccccc1)C(=O)N[C@@H](C)C(=O)NCC(=O)N[C@@H](CC(C)C)C(=O)N1CCC[C@H]1C(=O)N[C@@H](CC(C)C)C(=O)N[C@@H](CCCCN)C(=O)N[C@@H](CC(C)C)C(=O)N[C@H]1CSSC[C@@H](C(=O)O)NC(=O)[C@H](CCCCN)NC(=O)[C@H](CCCCN)NC(=O)[C@H](Cc2ccccc2)NC(=O)[C@H](CC(C)C)NC(=O)[C@H](Cc2ccccc2)NC1=O"
test_system = "Bacillus subtilis ATCC 6633"
reported_property = "log10 of MIC"
measured_number = 1.34


Need log10 of MIC, item `CC(C)C[C@H](NC(=O)[C@H](Cc1c[nH]c2ccccc12)NC(=O)[C@H](CCCCN)NC(=O)[C@H](CC(C)C)NC(=O)[C@H](CC(C)C)NC(=O)[C@H](CCCCN)NC(=O)[C@H](CCCCN)NC(=O)[C@H](CC(C)C)NC(=O)[C@H](CC(C)C)NC(=O)[C@@H](N)CCCCN)C(=O)N[C@@H](CCCCN)C(N)=O`
0.15

---

test system: Enterobacter cloacae beta-12; assay: ≥ marks a high value that may be exact or a test limit, other limits are often not marked, values filed in µg/mL are converted to µM
reported.property: MIC

// known answers, use as guide
[[record]]
smiles_representation = "CC(C)C[C@H](NC(=O)[C@H](C)NC(=O)CNC(=O)[C@H](CC(C)C)NC(=O)[C@@H](N)Cc1ccccc1)C(=O)N[C@@H](Cc1c[nH]c2ccccc12)C(=O)N[C@@H](CC(N)=O)C(=O)N1CCC[C@H]1C(=O)N[C@@H](C)C(=O)N[C@@H](CCCCN)C(=O)N[C@@H](CO)C(=O)N[C@H](C(=O)N[C@@H](Cc1ccccc1)C(N)=O)C(C)C"
test_system = "Enterobacter cloacae beta-12"
reported_property = "MIC"
result = "≥ 50 µM"

[[record]]
smiles_representation = "CC[C@H](C)[C@H](N)C(=O)N[C@@H](CC(C)C)C(=O)NCC(=O)N[C@@H](CCCCN)C(=O)N[C@@H](Cc1ccccc1)C(=O)N[C@@H](Cc1c[nH]c2ccccc12)C(=O)N[C@@H](CCC(=O)O)C(=O)NCC(=O)N[C@H](C(=O)N[C@@H](CCCCN)C(=O)N[C@@H](CO)C(=O)N[C@@H](CC(C)C)C(=O)N[C@@H](Cc1ccccc1)C(N)=O)[C@@H](C)CC"
test_system = "Enterobacter cloacae beta-12"
reported_property = "MIC"
result = "12.5 µM"

[[record]]
smiles_representation = "CC[C@H](C)[C@H](N)C(=O)N[C@@H](CC(C)C)C(=O)N[C@@H](CC(C)C)C(=O)N[C@@H](CCCCN)C(=O)N[C@H](C(=O)N[C@@H](Cc1c[nH]c2ccccc12)C(=O)N[C@@H](CCC(=O)O)C(=O)NCC(=O)N[C@H](C(=O)N[C@@H](CCCCN)C(=O)N[C@@H](CO)C(=O)N[C@@H](CC(C)C)C(=O)N[C@@H](Cc1ccccc1)C(N)=O)[C@@H](C)CC)[C@@H](C)CC"
test_system = "Enterobacter cloacae beta-12"
reported_property = "MIC"
result = "12.5 µM"


Consider the additional compound presented here.
Need MIC, item `CC(C)C[C@H](NC(=O)[C@H](C)NC(=O)[C@H](CCCCN)NC(=O)[C@H](CC(C)C)NC(=O)[C@@H](N)Cc1ccccc1)C(=O)N[C@@H](Cc1c[nH]c2ccccc12)C(=O)N[C@@H](CCCCN)C(=O)N[C@H](C(=O)N[C@@H](C)C(=O)N[C@@H](CCCCN)C(=O)N[C@@H](CO)C(=O)N[C@H](C(=O)N[C@@H](Cc1ccccc1)C(N)=O)C(C)C)C(C)C`
3.1 µM

Origin of measurements: DBAASP
